- target.of.assay: TAF1(BD2) (Homo sapiens, UniProt P21675)
- Construct: the second bromodomain of TAF1 (TAF1 (2)); purchased DiscoverX Corporation (contract assay); host or cells: T7 phage in E. coli host derived from BL21
- Sequence (P21675 1519-1628 limits assumed): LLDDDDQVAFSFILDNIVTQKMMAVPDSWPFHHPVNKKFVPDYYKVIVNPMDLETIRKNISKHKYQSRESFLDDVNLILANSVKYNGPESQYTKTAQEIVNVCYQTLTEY
- measurement.notes: BROMOscan binding constant determination for TAF1(BD2)
- test.conditions: 11-point 3-fold dilution series, read-out: TAF1_BD2 (IC50 μM)
metric: IC50
Give the number first and the unit second.

Answered cases to consult:
COc1ccc(C(=O)Nc2cccc3c2ccc(=O)n3C)cc1 :: 0.056 µM
Cn1ccc2c(NC(=O)c3ccc4c(c3)OCCO4)cccc2c1=O :: 4 µM
Cn1c(=O)cc(C(=O)Nc2ccc3c(c2)OCCO3)c2ccccc21 [Compound 29] :: 3.1 µM

Let's switch to this molecule now.
Lookup: // query IC50 value for entry Cn1c(=O)cc(C(=O)Nc2ccc3c(c2)OCCO3)c2ccccc21 [Compound 4-1]
Found: 0.25 µM

====

I'd appreciate it if you could supply inhibition at 1 µM values for the items below.
- target.of.assay: TAF1(BD2) (Homo sapiens)
- Construct: the second bromodomain of TAF1 (TAF1 (2)); purchased DiscoverX Corporation (contract assay); host or cells: T7 phage in E. coli host derived from BL21
- measurement.notes: BROMOscan primary screen, binding to TAF1(BD2)
- test.conditions: read-out: TAF1_BD2 (% inhibition at 1 μM)
One number for each entry, in %.

COc1ccc(C(=O)Nc2cccc3c(=O)n(C)ccc23)cc1 :: 34
Cn1ccc(C(=O)Nc2ccc(OC(F)(F)F)cc2)cc1=O :: 3
COc1cc(OC)cc(C(=O)Nc2cccc3c2ccc(=O)n3C)c1 :: 50

List inhibition at 1 µM for every entry below, keeping the order given.
1. COc1cc(NC(=O)c2ccn(C)c(=O)c2)cc(OC)c1
2. Cn1ccc2c(NC(=O)c3ccc(OC(F)(F)F)cc3)cccc2c1=O

Found:
1: 20; 2: 11

====

I'd appreciate it if you could supply inhibition at 1 µM values for the items below.
- target.of.assay: TAF1(BD2) (Homo sapiens)
- Construct: the second bromodomain of TAF1 (TAF1 (2)); purchased DiscoverX Corporation (contract assay); host or cells: T7 phage in E. coli host derived from BL21
- measurement.notes: BROMOscan primary screen, binding to TAF1(BD2)
- test.conditions: read-out: TAF1_BD2 (% inhibition at 1 μM)

COc1cc(OC)cc(C(=O)NC2CCCc3c2ccc(=O)n3C)c1 (stereo not shown) [Compound 4-33] :: 11%
Cn1ccc(C(=O)Nc2ccc3c(c2)OCCO3)cc1=O [Compound 4-10] :: 3%
Cn1c(=O)ccc2c(C(=O)Nc3ccc4c(c3)OCCO4)cccc21 [Compound 4-24] :: 58%

Lookup: // query inhibition at 1 µM value for entry Cn1c2c(ccc1=O)C(NC(=O)c1ccc(OC(F)(F)F)cc1)CCC2 (stereo not shown) [Compound 4-32]
Found: 10%
